For each of the molecules below, state its pIC50.
# System: NCI-N87
# test.protocol: Antiproliferative activity against human NCI-N87 cells after 72 hrs by MTT assay
# Format: functional, cell-based
# test.conditions: NCI-N87, 72 h
pIC50 is a log-scale quantity: -log10 of the concentration expressed in molar.

**Query** Request the reported pIC50 associated with Cc1c(NC(=O)OC[C@@H]2COCCN2)cn2ncnc(Nc3ccc4c(cnn4Cc4cccc(F)c4)c3)c12
**Result** 6.35

**Query** Request the reported pIC50 associated with CCC1=C2C(Nc3ccc4c(cnn4Cc4ccccc4)c3)=NC=NC2N=C1NC(=O)OCC1CCNCC1 (centres undefined)
**Result** 6.77

**Query** Request the reported pIC50 associated with CCC1=C2C(Nc3ccc4c(cnn4Cc4ccccc4)c3)=NC=NC2N=C1NC(=O)OCCN1CCOCC1 (centres undefined)
**Result** 6.28

**Query** Request the reported pIC50 associated with CCC1=C2C(Nc3ccc4c(cnn4Cc4ccccc4)c3)=NC=NC2N=C1NC(=O)OCCN1CCNCC1 (centres undefined)
**Result** 7.00
